Test: Toxicity liver stage against HepG2, at 10uM
Format: cell-based
Set-up: test concentration 10 uM, cell line HepG2-A16-CD81EGFP
Experimental setup: human, HepG2-A16-CD81EGFP cells; read-out: INHIBITION
Listing of recorded cytotoxicity at 10 µM by entry.
Experimental readout: cytotoxicity at 10 µM (%)

CCc1cc(CNC(=O)N2CCC(Cc3cnn(C)c3)C2)on1 (stereo not drawn)
-6.04
CCN1CCN2CCCN(S(=O)(=O)c3ccc(S(C)(=O)=O)cc3)C2C1=O (stereo not drawn)
5.36
CCC1CN(C(=O)c2ccccc2N2CCCC2)CCN1C(C)C (stereo not drawn)
-9.78
O=C(CCn1cncn1)NC1CCS(=O)(=O)C1 (stereo not drawn)
-45.4
Cc1nnc(N2C[C@H](OCCCn3cccn3)[C@H]3OCCC[C@H]32)s1
13.8
COc1cc2c(cc1-c1nc3c(cnn3C(C)C3CC3)[nH]1)OCO2 (stereo not drawn)
4.82
NCC1CCC(c2c(C(=O)NCCO)sc3ccccc23)CC1 (stereo not drawn)
-11
COc1cc(F)ccc1NC(=O)NCCNC(=O)OC(C)(C)C
-3.97

---

Test: Toxicity liver stage against HepG2, at 10uM
Format: cell-based
Parameters: test concentration 10 uM, cell line HepG2-A16-CD81EGFP
Experimental setup: human, HepG2-A16-CD81EGFP cells; read-out: INHIBITION
Listing of recorded cytotoxicity at 10 µM by entry.
Experimental readout: cytotoxicity at 10 µM (%)

COc1ccc(Br)c(C(=O)N2CCC(c3n[nH]c(C4CC4)n3)CC2)c1
-1.44
Cc1cccc(CS(=O)(=O)c2nnc(N3CCOCC3)s2)c1
-3.48
O=C(c1nc(=O)[nH]c2ccccc12)N1CCCC(CC2CC2)(C(=O)O)C1 (stereo not given)
6.56
CCOc1cc(C(=O)NS(=O)(=O)c2cccc(C#N)c2)ccc1OC
-6.69
COc1cc(C(=O)NCCc2ccc(Cl)cc2)on1
-0.295
Cc1csc(N2CCN(C(=O)C3(C#N)CCCC3)CC2)n1
-12.6
Cc1noc([C@@H]2CCCN2C(=O)C2CCN(C(=O)C3CCC3)CC2)n1
-14.4
CCN(CC)S(=O)(=O)N1CCCC1c1nnc2n1CCN(C)CC2 (stereo not given)
0.45
COC(=O)c1c(C(F)(F)F)cnc(OC)c1Cl
7.03
COc1cccc2c1OCC(CNC(=O)Cc1csc(C(C)=O)c1)C2 (stereo not given)
-146
CCN(Cc1ccncc1)C(=O)C(C)n1ccnc1C(C)C (stereo not given)
2.79
Cc1cnc(CNC(=O)C2CCOc3ccccc3C2)cn1 (stereo not given)
-2.21
CCNC(=O)CN(CC)C(=O)c1cc(-c2cccc(Cl)c2)no1
-9.88
Cc1nc(C)n(CC2CN(CCc3cccs3)CCO2)n1 (stereo not given)
7.12
CC1(C(N)=O)CN(CC2CCC2)CCO1 (stereo not given)
2.04

---

Test: Toxicity liver stage against HepG2, at 10uM
Type: cell-based
Set-up: test concentration 10 uM, cell line HepG2-A16-CD81EGFP
Experimental setup: human, HepG2-A16-CD81EGFP cells; read-out: INHIBITION
Experimental readout: cytotoxicity at 10 µM (%)

COCCN(C)C[C@@H]1CN(c2nc(C)cc(C)n2)C[C@@H]1CO
-10.3
CC(C)c1cc(NC(=O)c2ccc([S+]([O-])C(C)C)cc2)[nH]n1 (centres undefined)
-7.52
O=C(CCCc1cn[nH]c1)N1C[C@H](CO)C[C@H](CN2CCCC2)C1
-10.2
Cn1c(CC2CCS(=O)(=O)C2)nnc1SCCOc1ccccc1F (centres undefined)
-6.82
Cc1cc(C)cc(CNCCS(=O)(=O)N2CCOCC2)c1
1.05
CN(C)C(=O)NCc1ncn2c1CN(Cc1cccs1)CCC2
8.07
CC(=O)NCc1ccc(C(=O)N2CCCc3c(F)ccc(C)c32)cc1
-3.26
Cc1ccc(C(CNCc2nccn2C)N2CCOCC2)s1 (centres undefined)
-1.76
COc1ccc2c(c1)OCC(Cc1cc(C(=O)N3CCCC3)ccn1)C2 (centres undefined)
-0.675
